This collection of values is drawn from PubChem BioAssay.

test: binders of probe aHhip on microarray, primary screen, stem cell growth factor project, biochemical, small-molecule microarray, fluorescence 635/667 (AID 1087); conditions: higher = more signal;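 further: score merges spot fluorescence at 667nm with spot signal to noise ratio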

MOLECULAR_STRING	composite z-score
COC(=O)[C@@]1(Cc2ccc(F)cc2)[C@@H]2[C@@H](CC(=O)[C@H]2CC(=O)C(=O)N2CCCC2)CN1C(=O)c1ccccc1	-0.24
NC(=O)[C@H]1[C@@H]2C(=O)O[C@@H](c3ccccc3)[C@@H](c3ccccc3)N2[C@@H](c2ccc(O)cc2)[C@]12C(=O)Nc1ccc(C#CC3(O)CCCCCC3)cc12	0.233
COC(=O)[C@@]1(Cc2ccc(F)cc2)[C@H]2c3cc(C(=O)N(C)C)n(CCSCCO)c3C[C@H]2CN1C(=O)c1ccccc1	-0.0029

---

assay: blockers of DNA damage checkpoint Chk1 activation – imaging, HeLa, hydroxyurea, phospho-Chk1 nuclear intensity, primary screen (AID 1187); conditions: hydroxyurea-induced phospho-Chk1 immunofluorescence imaging, higher = more signal; further: test concentration not given here
Dear colleague, classification is by z-score, with ranges listed here: low range = under -0.3, mid range = from -0.3 up to 0.04, high range = 0.04 and over

COMPOUND	DISCRETE_LABEL
C[N+](C)(C)CCCCNC(=O)[C@H]1C[C@H]2C(=O)NCC(=O)N2[C@H]1c1ccc(O)cc1	low range
[N-]=[N+]=NCc1ccccc1[C@H]1OC(c2ccc(OCCCO)cc2)=N[C@@]1(Cc1ccccc1)C(N)=O	mid range
COCCOC(=O)N1C(=O)[C@@]2(c3ccccc31)[C@H](c1ccccc1OCCO)N1[C@H](c3ccccc3)[C@H](c3ccccc3)OC(=O)[C@H]1[C@@H]2C(=O)N1CCc2cc(OC)c(OC)cc2C1	mid range
CO[C@H]1O[C@H](CO)[C@@H](OC(=O)Nc2cccc(F)c2)[C@H](OC(=O)Nc2ccc3c(c2)OCO3)[C@H]1OC(=O)Nc1ccc2c(c1)OCO2	high range
CC(C)C[C@H]1NC(=O)[C@H](C)NC(=O)[C@@]23C(=O)N[C@@H](Cc4ccccc4)C2[C@H](C)[C@@]2(C)O[C@H]2C3/C=C/C/C=C\CNC1=O (stereo partly drawn)	low range
CC1(C)[C@@H]2CC(C(O)C3C=CC4C(=O)N(c5ccccc5)C(=O)C4N3Nc3ccccc3F)=C[C@@H]1C2 (stereo partly drawn)	high range
NC(=O)NCC#Cc1ccc2c(c1)[C@]1(C(=O)N2)[C@H](c2ccc(OCCO)cc2)N2[C@H](c3ccccc3)[C@H](c3ccccc3)OC(=O)[C@H]2[C@@H]1C(=O)N1CCN(c2ncccn2)CC1	high range
CO[C@H]1O[C@H](CO)[C@@H](OC(=O)Nc2ccc(C(F)(F)F)cc2)[C@H](OC(=O)Nc2ccccc2)[C@H]1OC(=O)Nc1ccccc1	low range
CC(C)[Si](C#C[Si](C(C)C)(C(C)C)C(C)C)(O[C@H](C)c1cn(Cc2cccc(Cl)c2)nn1)C(C)C	high range
CN(C)CCCCNC(=O)[C@H]1C[C@H]2C(=O)N[C@@H](CCCC[N+](C)(C)C)C(=O)N2[C@H]1c1cccc(OCCO)c1	mid range
COCCOC(=O)N1C(=O)[C@@]2(c3ccccc31)[C@H](c1ccc(OCCO)cc1)N1[C@H](c3ccccc3)[C@H](c3ccccc3)OC(=O)[C@H]1[C@@H]2C(=O)NC[C@H](O)c1ccccc1	high range

---

Each entry below carries its recorded z-score.
experiment: growth of efflux-deficient E. coli DRC39 – strain DRC39, OD650, 48 h, E. coli filamentation inducers, primary screen (AID 1179);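 further: screen aims at cell division blockers that make cells filament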; details: E. coli DRC39 delta-acrAB growth, higher = more signal, called active from +8 up or from −8 down
Calls of active or inactive are those of the source.

MOLECULE	z-score
CC[C@@H]1[C@@H]2C3C(=O)N(CC)C(=O)C3CC(=O)[C@@H]2[C@H](c2ccc(C)cc2)N1S(=O)(=O)c1ccc(C)cc1 (some centres undefined)	1.26 (inactive)
COCC(=C=CC[C@@H](O)c1ccccc1OCCO)C[C@@H](O)c1ccccn1	-0.268 (inactive)
C[C@]12C(=O)N(CCCCCO)[C@@H]3C(=O)N(c4ccc(Cl)cc4)CC=CC31O[C@@H]1/C=C\CCCOC(=O)C12 (some centres undefined)	-0.175 (inactive)
CC(C)C(CO)N1C(=O)[C@@H]2[C@H]3C(=O)OCC=C[C@H]3OC23C=CCN(Cn2nnc4ccccc42)C(=O)[C@@H]13 (some centres undefined)	-0.708 (inactive)

---

tested on: Sonic hedgehog protein (Shh); assay: Sonic hedgehog microarray binding compounds – biochemical, small-molecule microarray, 635/667 nm fluorescence, primary screen (AID 1151); conditions: 635 nm fluorescence, higher = more signal;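 further: Shh protein binding to compounds spotted on small-molecule microarray slides; score combines spot fluorescence intensity with signal-to-noise across triplicate slides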
VALUE_KIND: composite z-score

COMPOUND	ASSAY_RESULT
COCCCNC(=O)[C@@]1(Cc2ccccc2I)c2ccccc2C(=O)N(Cc2ccccc2Cl)[C@H]1c1ccc(CO)cc1	0.191
CC(C)c1ccc(NN2C(C(O)c3cccs3)C=CC3C(=O)N(c4ccccc4)C(=O)C32)cc1 (centres undefined)	-0.04
COc1ccc(C#Cc2ccc3c(c2)[C@]2(C(=O)N3)[C@H](C(=O)O)[C@H]3C(=O)O[C@H](c4ccccc4)[C@H](c4ccccc4)N3[C@@H]2c2ccc(OCCO)cc2)cc1	1.3
CN(C)C(=O)[C@@]1(CCC(=O)OC(C)(C)C)N=C(c2ccc(OCCCO)cc2)O[C@H]1c1ccccc1N=[N+]=[N-]	0.18
C=CCC(OC(C)=O)[C@@H]1[C@@H](N(Cc2ccc(-c3ccccc3)cc2)C(=O)Cc2ccc(OC)cc2)c2cc(OCCCO)ccc2N1C(=O)c1ccc(-c2ccccc2)cc1 (some centres undefined)	1.16
CC1CC/C=C\[C@H]2OC34C=CCN(c5ccc(Cl)cc5)C(=O)[C@H]3N(C(CO)C(C)C)C(=O)[C@]4(C)C2C(=O)O1 (some centres undefined)	0.14
C=CCOC(=O)[C@@H]1[C@H]2C(=O)O[C@H](c3ccccc3)[C@H](c3ccccc3)N2[C@H](c2ccc(OCCOC(=O)[C@@H]3C[C@@H]4C(=O)N5CCC[C@H]5C(=O)N4[C@@H]3c3cccc(OCCO)c3)cc2)[C@@]12C(=O)Nc1ccc(I)cc12	2.01
COC(=O)c1c(CC[C@@H](CO)NC(=O)N[C@@H](C)Cn2cc(C3(O)CCCC3)nn2)oc(C(C)=O)c1C(=O)OC	2.16
COc1ccc([Si](C)(C)[C@@H]2[C@@H](CC(=O)N(CCO)Cc3ccccc3)O[C@]3(C(=O)N(C)c4c(Br)cc(C)cc43)[C@H]2C)cc1	1.91
Cc1ccc(S[C@]2(C(=O)NCc3ccccc3)CC(=O)N(C3Cc4ccccc4C3)[C@@H]2c2ccc(CO)cc2I)cc1	-0.0358
COCCCNC(=O)[C@@]1(Cc2ccccc2N=[N+]=[N-])N=C(c2ccc(OCCCO)cc2)O[C@H]1c1ccccc1CN=[N+]=[N-]	-0.265
C=C(/C(=C/C[C@@H](OC(=O)c1ccncc1)c1cccc(OCCO)c1)c1cc(C(=O)OC)ccc1OC)C(C)C	1.64
CC(C)CCC[C@@H](C)[C@H]1CC[C@@]2(C)C3=C(CC[C@]12C)[C@@]1(C)CC[C@H](OC(=O)C(C)(C)C)C(C)(C)C1CC3 (some centres undefined)	0.836
O=C(C=C(CC(O)c1cccc(Cl)c1)OCCF)OCCF (centres undefined)	-0.335

---

target: Left-right determination factor 2 (Homo sapiens) (UniProt O00292); assay: small molecules binding LEFTY2 protein – biochemical, small-molecule microarray, 635 nm fluorescence scan, primary screen (AID 1110); conditions: higher = more signal
Sequence (O00292 whole entry, looked up): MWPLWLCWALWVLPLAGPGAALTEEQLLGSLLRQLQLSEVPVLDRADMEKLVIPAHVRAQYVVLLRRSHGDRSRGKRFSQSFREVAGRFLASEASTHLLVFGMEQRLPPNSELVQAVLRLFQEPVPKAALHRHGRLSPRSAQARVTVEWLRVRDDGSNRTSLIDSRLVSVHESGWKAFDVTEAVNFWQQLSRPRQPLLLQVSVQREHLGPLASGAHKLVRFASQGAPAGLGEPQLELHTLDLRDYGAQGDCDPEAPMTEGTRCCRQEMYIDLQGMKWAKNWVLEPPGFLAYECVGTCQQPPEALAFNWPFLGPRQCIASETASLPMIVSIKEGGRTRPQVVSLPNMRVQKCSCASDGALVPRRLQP
Assign y whenever composite z-score does not fall below -0.05; assign n whenever it does.

COMPOUND	DISCRETE_LABEL
O=C(NCc1ccccc1)[C@]1(Cc2ccccc2)N=C(c2ccc(OCCCO)cc2)O[C@@H]1c1ccccc1	n
COc1ccc([Si](C)(C)[C@H]2[C@H](CCO)O[C@@]3(C(=O)N(Cc4cccc(N5CCOC5=O)c4)c4ccccc43)[C@@H]2C)cc1	y
O=C1NC(=O)C2C1C=CC(C(O)c1ccc3c(c1)OCO3)N2Nc1ccc(Cl)cc1Cl (stereo unspecified)	y
COC(=O)C(CC#Cc1ccc2c(c1)[C@]1(C(=O)N2)[C@H](c2ccccc2OCCO)N2[C@H](c3ccccc3)[C@H](c3ccccc3)OC(=O)[C@H]2[C@@H]1C(=O)Nc1nc2ccccc2s1)C(=O)OC	y
COc1ccc([Si](C)(C)[C@@H]2[C@@H](CC(=O)N3Cc4ccccc4C[C@H]3CO)O[C@]3(C(=O)N(Cc4cccc(N5CCCCC5=O)c4)c4ccccc43)[C@H]2C)cc1	y
CC1CC/C=C\[C@H]2OC34C=CCN(Cc5ccccc5)C(=O)[C@H]3N(CCO)C(=O)[C@@H]4C2C(=O)O1 (stereo partly specified)	n

---

molecular target: Torsin-1A-interacting protein 1 (Homo sapiens) (UniProt Q5JTV8); assay: compound microarray binding of lysate hLAP1 – cell lysate, small-molecule microarray, COS7 lysate, 635/667 nm fluorescence, primary screen (AID 1116); details: 635 nm fluorescence, higher = more signal
Sequence (Q5JTV8 whole entry, looked up): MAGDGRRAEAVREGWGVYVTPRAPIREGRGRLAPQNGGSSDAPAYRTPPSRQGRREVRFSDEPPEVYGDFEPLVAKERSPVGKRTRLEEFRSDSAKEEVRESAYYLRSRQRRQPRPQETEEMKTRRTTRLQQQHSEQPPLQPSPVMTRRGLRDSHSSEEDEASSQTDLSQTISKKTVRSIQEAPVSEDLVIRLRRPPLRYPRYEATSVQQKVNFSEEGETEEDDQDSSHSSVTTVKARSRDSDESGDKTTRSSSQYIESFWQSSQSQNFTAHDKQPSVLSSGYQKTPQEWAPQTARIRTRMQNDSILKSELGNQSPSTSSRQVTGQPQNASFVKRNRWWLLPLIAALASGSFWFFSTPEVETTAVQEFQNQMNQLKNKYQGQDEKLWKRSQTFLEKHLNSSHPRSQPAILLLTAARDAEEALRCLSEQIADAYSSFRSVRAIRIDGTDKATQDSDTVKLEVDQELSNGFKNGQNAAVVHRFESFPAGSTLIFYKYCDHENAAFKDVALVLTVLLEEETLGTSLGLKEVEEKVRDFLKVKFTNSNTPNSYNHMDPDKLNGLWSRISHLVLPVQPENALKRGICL
Class (required): determined from composite z-score; valid ranges are lo (below 0.6), mid (0.6 to below 1), hi (1 or more)

MOLECULE	DISCRETE_LABEL
CC1(C)[C@@H]2CC(C(O)C3C=CC4C(=O)N(c5ccccc5)C(=O)C4N3Nc3ccccc3F)=C[C@@H]1C2 (stereo partly specified)	hi
[N-]=[N+]=NCc1ccccc1[C@H]1OC(c2ccc(OCCCO)cc2)=N[C@@]1(Cc1ccccc1)C(N)=O	hi
Cc1ccccc1C(O)C1C=CC2C(=O)N(C)C(=O)C2N1Nc1ccc([N+](=O)[O-])cc1[N+](=O)[O-] (stereo unspecified)	hi
CCCCC(=C=CC[C@H](O)c1ccccc1OCCO)C[C@H](O)c1ccccn1	mid
CN1C(=O)C2C=CC(C(O)c3ccc(F)cc3)N(N3CCCCC3)C2C1=O (stereo unspecified)	hi
O=C1OCCC=C[C@H]2OC34C=CCN(Cn5nnc6ccccc65)C(=O)[C@H]3N(CCCCCO)C(=O)[C@@H]4C12 (stereo partly specified)	lo
C[N+](C)(C)CCCCNC(=O)[C@H]1C[C@H]2C(=O)NCC(=O)N2[C@H]1c1ccc(O)cc1	mid
CN1C(=O)C2C=CC(C(O)C3CCCCC3)N(N(c3ccccc3)c3ccccc3)C2C1=O (stereo unspecified)	lo
Cc1ccc(F)cc1S(=O)(=O)N[C@@H]1CCN(C(=O)c2ccc(OC(C)C)cc2)C1	lo
COCCOC(=O)N1C(=O)[C@@]2(c3cc(C#Cc4ccc(OC)cc4)ccc31)[C@H](C(=O)N1CCc3cc(OC)c(OC)cc3C1)[C@H]1C(=O)O[C@H](c3ccccc3)[C@H](c3ccccc3)N1[C@@H]2c1ccc(O)cc1	lo
COc1ccc(C#Cc2ccc3c(c2)[C@]2(C(=O)N3)[C@H](C(N)=O)[C@H]3C(=O)O[C@H](c4ccccc4)[C@H](c4ccccc4)N3[C@@H]2c2ccc(O)cc2)cc1	hi
C=CCC(OC(C)=O)[C@@H]1[C@@H](N(Cc2ccc(-c3ccccc3)cc2)C(=O)c2cccc3ccccc23)c2cc(OCCCO)ccc2N1C(=O)c1ccc2ccccc2n1 (stereo partly specified)	lo
Cc1ccc(S[C@]2(C(=O)NCC(C)C)CC(=O)N(C3CCCCC3)[C@@H]2c2ccc(CO)cc2I)cc1	mid
CCCCC=C[C@@H](NC(=O)CCc1ccccc1)c1ccccc1	hi
C#CCNS(=O)(=O)N(C)C	lo
C=C(COC)C(=O)CC[C@H](OC(=O)c1ccccc1-c1ccccc1C(=O)O)c1ccc(OCCO)cc1	hi
